The measured values listed here are drawn from patent US20230167088A1.

- System: STEME
- ASSAY DETAILS: Herbicidal post-emergence action 1a (greenhouse pots, visual rating)
- Format: in vivo, Stellaria media
- RUN PARAMETERS: Dosage 80 g/ha; rated visually about 3 weeks after treatment; 100% = plants have died, 0% = like control plants
MEASURE: Post-emergence action against STEME in % (%)
API: value field is a number in %; no unit string.

Challenge: Identify the measured Post-emergence action against STEME in % of COC(=O)C(C)Oc1nn(-c2cnccn2)c(-c2ccc(F)nc2)c1Br (racemic) for STEME.
Response given: 80

Challenge: Next molecule up: C=CCOC(=O)C(C)Oc1nn(-c2cnccn2)c(-c2ccc(F)nc2)c1Br (racemic)
Response given: 90

Challenge: Please do the same for COC(=O)C(C)Oc1nn(-c2cnccn2)c(-c2cncc(F)c2)c1Br (racemic) as well.
Response given: 90

Challenge: And for COC(=O)COc1nn(-c2cnccn2)c(-c2cncc(F)c2)c1Br ?
Response given: 90

====

- Test system: SETVI
- ASSAY DETAILS: Herbicidal pre-emergence action 2a (greenhouse pots, visual scoring)
- Assay type: in vivo, Setaria viridis
- RUN PARAMETERS: dosage 320 g/ha, visual scoring after about 3 weeks vs untreated controls
MEASURE: Pre-emergence action against SETVI in % (%)
Entry rule: numbers only, all in %.

Below are worked cases with known answers.
COC(=O)CNC(=O)[C@@H](C)Oc1nn(-c2cnccn2)c(-c2ccc(F)nc2)c1Br [II-03]	100
COC(=O)[C@@H](C)Oc1nn(-c2cnccn2)c(-c2cncc(F)c2)c1Br [Example I-39]	100
C[C@@H](Oc1nn(-c2cnccn2)c(-c2cncc(F)c2)c1Br)C(=O)O [Example I-96]	100
COCCOCCOC(=O)COc1nn(-c2cnccn2)c(-c2ccc(F)nc2)c1Br [Example I-67]	90
CCOC(=O)[C@@H](C)Oc1nn(-c2cnccn2)c(-c2cncc(F)c2)c1Br [Example I-99]	100

Challenge: What measured Pre-emergence action against SETVI in % goes with COC(=O)[C@@H](C)Oc1nn(-c2cnccn2)c(-c2cncc(F)c2)c1C#N [Example I-40] ?
Response given: 100

Challenge: What about this compound? CCOC(=O)COc1nn(-c2cnccn2)c(-c2ccc(F)nc2)c1Cl [Example I-53]
Response given: 100

Challenge: Further, for COC(=O)[C@@H](C)Oc1nn(-c2cnccn2)c(-c2ccc(F)c(F)c2)c1C#N [Example I-46] ?
Response given: 100

====

- Tested on: DIGSA
- ASSAY DETAILS: Herbicidal post-emergence action 1a (greenhouse pots, visual rating)
- Assay type: in vivo, Digitaria sanguinalis
- RUN PARAMETERS: Dosage 320 g/ha; rated visually about 3 weeks after treatment; 100% = plants have died, 0% = like control plants
MEASURE: Post-emergence action against DIGSA in % (%)
Numeric answer only, unit % assumed.

Examples with their reported Post-emergence action against DIGSA in % follow.
COC(=O)C(C)Oc1nn(-c2cnccn2)c(-c2ccc(F)nc2)c1Br (racemic) [Example I-12]	80
COC(=O)C(C)Oc1nn(-c2cnccn2)c(-c2ccc(F)c(F)c2)c1Br (racemic) [Example I-16]	90
COC(=O)C(C)Oc1nn(-c2cnccn2)c(-c2ccnc(F)c2)c1Br (racemic) [Example I-10]	80
COC(=O)COc1nn(-c2cnccn2)c(-c2cncc(F)c2)c1Br [Example I-07]	90
COC(=O)COc1nn(-c2cnccn2)c(-c2ccc(F)c(F)c2)c1Br [Example I-15]	90
COC(=O)[C@@H](C)Oc1nn(-c2cnccn2)c(-c2ccnc(F)c2)c1Br [Example I-34]	80
C=CCOC(=O)C(C)Oc1nn(-c2cnccn2)c(-c2ccc(F)nc2)c1Br (racemic) [Example I-13]	90
CCOC(=O)COc1nn(-c2cnccn2)c(-c2ccccc2)c1Br [Example I-01]	80

Challenge: Query (molecule): COC(=O)[C@@H](C)Oc1nn(-c2cnccn2)c(-c2cncc(F)c2)c1C#N [Example I-40] ; field requested: Post-emergence action against DIGSA in %
Response given: 80

Challenge: Try the molecule COC(=O)C(C)Oc1nn(-c2cnccn2)c(-c2cncc(F)c2)c1Br (racemic) [Example I-08]
Response given: 80

Challenge: Next record, please: COC(=O)C(C)Oc1nn(-c2cnccn2)c(-c2ccc(F)c(F)c2)c1C#N (racemic) [Example I-22]
Response given: 80

Challenge: Next entry: COC(=O)C(C)Oc1nn(-c2cnccn2)c(-c2ccnc(F)c2)c1Cl (racemic) [Example I-05]
Response given: 90

Challenge: Item: COC(=O)[C@@H](C)Oc1nn(-c2cnccn2)c(-c2ccc(F)nc2)c1Cl [Example I-36]
Response given: 90

Challenge: Another molecule to look at: COC(=O)[C@@H](C)Oc1nn(-c2cnccn2)c(-c2ccc(F)nc2)c1Br [Example I-17]
Response given: 90

Challenge: How about this molecule: COC(=O)[C@@H](C)Oc1nn(-c2cnccn2)c(-c2cncc(F)c2)c1Br [Example I-39]
Response given: 90

Challenge: Again, but for COC(=O)[C@@H](C)Oc1nn(-c2cnccn2)c(-c2cccc(F)c2)c1Br [Example I-20]
Response given: 90

Challenge: Try the molecule C[C@H](Oc1nn(-c2cnccn2)c(-c2cncc(F)c2)c1Br)C(=O)O [Example I-37]
Response given: 90

====

- Test system: ABUTH
- ASSAY DETAILS: Herbicidal post-emergence action 1a (greenhouse pots, visual rating)
- Type: in vivo, Abutilon theophrasti
- RUN PARAMETERS: dosage 320 g/ha, visual rating about 3 weeks after treatment
Overview of recorded Post-emergence action against ABUTH in % for various molecules
Field: numeric (%). Do not append units.

COC(=O)[C@@H](C)Oc1nn(-c2cnccn2)c(-c2cccc(F)c2)c1Br	90
CCOC(=O)COc1nn(-c2cnccn2)c(-c2cncc(F)c2)c1Br	90
COC(=O)COc1nn(-c2cnccn2)c(-c2cncc(F)c2)c1Br	90
COC(=O)C(C)Oc1nn(-c2cnccn2)c(-c2ccnc(F)c2)c1Cl (racemic)	80
COC(=O)[C@@H](C)Oc1nn(-c2cnccn2)c(-c2cncc(F)c2)c1C#N	80

Challenge: # get_value(readout='Post-emergence action against ABUTH in %', item= CCOC(=O)COc1nn(-c2cnccn2)c(-c2cncc(F)c2)c1F )
Response given: 90

Challenge: Query COC(=O)[C@@H](C)Oc1nn(-c2cnccn2)c(-c2ccc(F)nc2)c1I next
Response given: 90

Challenge: Let us now turn to COC(=O)C(C)Oc1nn(-c2cnccn2)c(-c2cncc(F)c2)c1Br (racemic)
Response given: 90

Challenge: Moving on to the next molecule: COC(=O)[C@@H](C)Oc1nn(-c2cnccn2)c(-c2ccc(F)nc2)c1Cl
Response given: 80

Challenge: Would you mind doing COC(=O)COc1nn(-c2cnccn2)c(-c2ccc(F)nc2)c1Br as well?
Response given: 80

====

- System: STEME
- ASSAY DETAILS: Herbicidal post-emergence action 1a (greenhouse pots, visual rating)
- Type: in vivo, Stellaria media
- RUN PARAMETERS: Dosage 320 g/ha; rated visually about 3 weeks after treatment; 100% = plants have died, 0% = like control plants
Some compounds, each annotated with its measured Post-emergence action against STEME in %.

A selection of reference data follows.
COC(=O)C(C)Oc1nn(-c2cnccn2)c(-c2ccc(F)nc2)c1Br (racemic)	90%
COC(=O)C(C)Oc1nn(-c2cnccn2)c(-c2ccnc(F)c2)c1Cl (racemic)	80%
O=C(O)COc1nn(-c2cnccn2)c(-c2cccc(F)c2)c1Br	80%

Challenge: Bench note: what Post-emergence action against STEME in % did COC(=O)COc1nn(-c2cnccn2)c(-c2ccnc(F)c2)c1Br show?
Response given: 80%

Challenge: Try the compound COC(=O)C(C)Oc1nn(-c2cnccn2)c(-c2cncc(F)c2)c1Br (racemic)
Response given: 90%

====

Reported Pre-emergence action against PHBPU in % is given for each of the following compounds.
- Test system: PHBPU
- ASSAY DETAILS: Herbicidal pre-emergence action 2a (greenhouse pots, visual scoring)
- Type: in vivo, Pharbitis purpurea
- RUN PARAMETERS: dosage 320 g/ha, visual scoring after about 3 weeks vs untreated controls
Enter your answer as a number in %; do not include the unit.

Below, each entry is followed by its recorded Pre-emergence action against PHBPU in % result.
COC(=O)COc1nn(-c2cnccn2)c(-c2ccc(F)nc2)c1Br	90
CCOC(=O)COc1nn(-c2cnccn2)c(-c2ccc(F)nc2)c1Br	100
O=C(O)COc1nn(-c2cnccn2)c(-c2cncc(F)c2)c1Br	100
COC(=O)COc1nn(-c2cnccn2)c(-c2ccc(F)c(F)c2)c1Br	90

Challenge: Requested read-out: Pre-emergence action against PHBPU in %. Entry: COCCOCCOC(=O)COc1nn(-c2cnccn2)c(-c2ccc(F)nc2)c1Br
Response given: 80

Challenge: Check CCOC(=O)[C@@H](C)Oc1nn(-c2cnccn2)c(-c2cncc(F)c2)c1Br too.
Response given: 90

Challenge: Then what about the compound O=C(O)COc1nn(-c2cnccn2)c(-c2cncc(F)c2)c1Cl ?
Response given: 90

Challenge: Next: COC(=O)[C@@H](C)Oc1nn(-c2cnccn2)c(-c2cncc(F)c2)c1Cl
Response given: 90

Challenge: What about CCOC(=O)[C@@H](C)Oc1nn(-c2cnccn2)c(-c2cncc(F)c2)c1Cl ?
Response given: 80

Challenge: What about this compound? COCCOC(=O)COc1nn(-c2cnccn2)c(-c2ccc(F)nc2)c1Br
Response given: 80

Challenge: Again, but for COC(=O)COc1nn(-c2cnccn2)c(-c2cncc(F)c2)c1Br
Response given: 90
